Hi there, I'd appreciate the recorded PBM E-score for every entry that follows.
Biological target: Cst6 (UniProt P40535)
Sequence (P40535 whole entry): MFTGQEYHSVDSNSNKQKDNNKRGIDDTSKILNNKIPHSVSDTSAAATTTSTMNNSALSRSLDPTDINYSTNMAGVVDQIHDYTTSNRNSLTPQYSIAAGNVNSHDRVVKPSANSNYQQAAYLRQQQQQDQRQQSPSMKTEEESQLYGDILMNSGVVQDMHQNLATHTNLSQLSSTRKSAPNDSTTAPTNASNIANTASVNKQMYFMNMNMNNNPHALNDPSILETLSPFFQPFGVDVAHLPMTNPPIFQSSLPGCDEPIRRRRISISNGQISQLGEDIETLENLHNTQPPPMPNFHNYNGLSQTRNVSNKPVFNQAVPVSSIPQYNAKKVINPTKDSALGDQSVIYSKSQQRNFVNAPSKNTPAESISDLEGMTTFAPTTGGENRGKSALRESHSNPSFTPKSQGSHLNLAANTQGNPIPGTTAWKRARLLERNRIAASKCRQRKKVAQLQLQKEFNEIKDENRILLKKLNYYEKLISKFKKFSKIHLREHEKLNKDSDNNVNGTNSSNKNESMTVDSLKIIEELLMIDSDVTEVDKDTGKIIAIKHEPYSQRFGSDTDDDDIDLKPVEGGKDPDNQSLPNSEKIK
Test: PBM E-score (8-mer binding enrichment) (E-score (-0.5 to 0.5)); higher = stronger / more preferred TF binding
Settings: protein concentration: 200 nM; construct: GST-DNA-binding domain
In all, about 33,000 sequences were measured (“E-score (-0.5 to 0.5)”: median about -0.016, highest 2% from about 0.31 on). This excerpt belongs to a sample that is enriched for the highest values.
// print number alone

Which measured PBM E-score value corresponds to `AGATCACT` ?
0.181

Which measured PBM E-score value corresponds to `CTTCGATA` ?
0.178

Which measured PBM E-score value corresponds to `CAGGCATC` ?
-0.213

Which measured PBM E-score value corresponds to `CAACTTCG` ?
0.0207

Which measured PBM E-score value corresponds to `GCCGCCGC` ?
0.205

Which measured PBM E-score value corresponds to `CGTGTGGA` ?
-0.153

Which measured PBM E-score value corresponds to `AGGGGTTC` ?
-0.327

Which measured PBM E-score value corresponds to `ACTAGCCC` ?
-0.0733

Which measured PBM E-score value corresponds to `AGTGACGG` ?
0.301

Which measured PBM E-score value corresponds to `ACATCACT` ?
0.401

Which measured PBM E-score value corresponds to `GAGTCATA` ?
0.144

Which measured PBM E-score value corresponds to `ACCGTCCA` ?
-0.185

Which measured PBM E-score value corresponds to `GAGGCGAA` ?
0.0301

Which measured PBM E-score value corresponds to `GCGTCATA` ?
0.463

Which measured PBM E-score value corresponds to `CTAAAGAG` ?
-0.0139

Which measured PBM E-score value corresponds to `CCATCACC` ?
0.15

Which measured PBM E-score value corresponds to `CAGTCATC` ?
-0.0341

Which measured PBM E-score value corresponds to `CGGTCATC` ?
0.085

Which measured PBM E-score value corresponds to `ACGCCGAA` ?
0.0504

Which measured PBM E-score value corresponds to `CCGTCATC` ?
0.385

Which measured PBM E-score value corresponds to `TAATTTAA` ?
0.287

Which measured PBM E-score value corresponds to `GCATCACC` ?
0.231
